pIC50: −log10 of the molar value.
Several publications report pIC50 on Epithelial discoidin domain-containing receptor 1 (Homo sapiens, UniProt Q08345); those values are gathered here.
property_measured: pIC50

compound=CN(C)[C@@H]1CCN(Cc2cc(NC(=O)c3csc4c3CCN(C(=O)c3cnc5ccccn35)C4)cc(C(F)(F)F)c2)C1 measured_result="7.30 to 7.60"
compound=O=C(Nc1cncc(OC(F)F)c1)c1csc2c1CCN(C(=O)c1cnn3ccncc13)C2 measured_result="7.30 to 7.60"
compound=O=C(Nc1nccc(C(F)(F)F)n1)c1csc2c1CCN(C(=O)c1cnc3ccccn13)C2 measured_result="7.10 to 7.30"
compound=O=C(Nc1cncc(OC(F)(F)F)c1)c1csc2c1CCN(C(=O)c1cnc3ccccn13)C2 measured_result="> 7.60"
compound="CC1c2scc(C(=O)Nc3cccc(C(F)(F)F)c3)c2CCN1Cc1cnc2cnccn12 (stereo not shown)" measured_result="> 7.60"
compound=Cc1n[nH]c2ncc(CN3CCc4c(C(=O)Nc5cc(C6CC6)nn5C)csc4C3)cc12 measured_result="7.30 to 7.60"
compound=CN1CC=C(c2ccc3ncc(C(=O)N4CCc5c(C(=O)Nc6cccc(C(F)(F)F)c6)csc5C4)n3c2)CC1 measured_result="7.30 to 7.60"
compound=Cc1cn(-c2cc(NC(=O)c3ccc4c(c3)N(Cc3cnc5[nH]ncc5c3)CC4)cc(C(F)(F)F)c2)cn1 measured_result="> 7.60"
compound=O=C(Nc1cc(F)cc(C(F)(F)F)c1)c1ccc2c(c1)N(Cc1ccc3[nH]cnc3c1)CC2 measured_result="7.10 to 7.30"
compound=Nc1ncc(CN2CCc3c(C(=O)Nc4cccc(C(F)(F)F)c4)csc3C2)cn1 measured_result="> 7.60"
compound=Cc1cccc(-c2cc3nccc(Nc4cccc(O)c4)c3s2)c1 measured_result=5.97
compound=CC(C)(C)c1cc(NC(=O)c2csc3c2CCN(C(=O)c2cnn4ccncc24)C3)no1 measured_result="7.10 to 7.30"
compound=CC(C)(C)c1cc(NC(=O)c2csc3c2CCN(C(=O)c2cnn4ccncc24)C3)on1 measured_result="7.30 to 7.60"
compound=O=C(Nc1cc(C(F)(F)F)ccn1)c1csc2c1CCN(C(=O)c1cnc3ccccn13)C2 measured_result="7.10 to 7.30"
compound=Cc1n[nH]c2ncc(CN3CCc4ccc(C(=O)Nc5cc(C(C)(C)C)no5)cc43)cc12 measured_result="> 7.60"
compound=O=C(Nc1cccc(C(F)(F)F)c1)c1csc2c1CCN(Cc1cncc(C(F)(F)F)c1)C2 measured_result="7.30 to 7.60"
